study-system: His-tagged FcγRIIIa recombinant protein (UniProt P08637)
assay: SPR (BIACORE X100), His-tagged FcγRIIIa captured on anti-His CM5 chip, antibody as analyte, 1:1 Langmuir fit
measured-endpoint: pKd
Answer as the number alone; pKd is minus log10 of concentration in mol/L.

Retrieve pKd measured for GAZYVA (obinutuzumab), commercial afucosylated anti-CD20 antibody and print it.
7.40
